Every entry's value here was drawn from paper PMC12133982.

Biological target: HLA-B1502 (Homo sapiens, UniProt P01889, A329T/A93T/A95T/C349S/D201E/D98Y/E187L/E204Q/E69M/E70A/H137Y/K202T/L119I/Q94N/R155S/R180L/S121R/S35A/S48A/T118I/V306I/V36M/Y140S/Y91S)
Assay: Competitive peptide binding assay, CIR-B1502
Conditions: HMy2.CIR-B1502 cells, reference Cy5-[…], class from inhibition at 5 and 15 μM, flow cytometry MFI; read-out: Binding affinity with HLA-B1502
Description: Then, competitive peptide binding assays were performed.
Peptide text beside a SMILES is read from it.
I'd appreciate it if you could supply IC50 values for the items below.

Worked examples follow.
CC(C)C[C@H](NC(=O)[C@@H](NC(=O)[C@H](CCCNC(=N)N)NC(=O)[C@H](CO)NC(=O)[C@@H](NC(=O)[C@H](C)NC(=O)[C@@H](N)C(C)C)[C@@H](C)O)[C@@H](C)O)C(=O)N[C@@H](CO)C(=O)N[C@@H](Cc1ccc(O)cc1)C(=O)O [Epitope Y158] (H-VATSRTLSY-OH; N-terminus and C-terminus assumed)
5 to 15 µM
CC(C)C[C@H](NC(=O)[C@H](CC(C)C)NC(=O)[C@H](CC(C)C)NC(=O)[C@H](CC(N)=O)NC(=O)[C@H](CO)NC(=O)[C@H](CS)NC(=O)[C@H](CCC(=O)O)NC(=O)[C@@H](N)[C@@H](C)O)C(=O)N[C@@H](CCC(N)=O)C(=O)N[C@@H](Cc1ccc(O)cc1)C(=O)O [Epitope Y231] (H-TECSNLLLQY-OH; N-terminus and C-terminus assumed)
> 15 µM

Shifting focus to the molecule that follows.
Query :: I would be grateful if you could share the reported IC50 for CSCC[C@H](NC(=O)[C@H](CCSC)NC(=O)[C@H](CO)NC(=O)[C@H](Cc1ccccc1)NC(=O)[C@H](Cc1c[nH]cn1)NC(=O)[C@H](CCCCN)NC(=O)[C@H](CCCNC(=N)N)NC(=O)[C@H](CC(C)C)NC(=O)[C@@H](N)Cc1ccc(O)cc1)C(=O)O [Epitope Y28] (H-YLRKHFSMM-OH; N-terminus and C-terminus assumed) .
Result :: > 15 µM
